test system: HN; assay: cells; assay type: functional, cell-based, Homo sapiens; conditions: Homo sapiens, HN
Description: SANGER: Inhibition of human HN cell growth in a cell viability assay.
quantity_name: IC50 (µM)

>>> data_value("COc1cc(F)c(F)c(Nc2ccc(I)cc2F)c1NS(=O)(=O)C1(CC(O)CO)CC1 (centres undefined)")
1.12
>>> data_value("CN(C)C/C=C/C(=O)Nc1cc2c(Nc3ccc(F)c(Cl)c3)ncnc2cc1O[C@H]1CCOC1")
0.131

* * *

Overview of reported pIC50 across a group of compounds:
test system: D-423MG; assay: cells; assay type: functional, cell-based; conditions: Homo sapiens
Description: SANGER: Inhibition of human D-423MG cell growth in a cell viability assay.
pIC50: −log10 of the molar value.
quantity_name: pIC50

>>> data_value("C=CCNC1=C2C[C@@H](C)C[C@H](OC)[C@H](O)[C@@H](C)/C=C(\\C)[C@H](OC(N)=O)[C@@H](OC)/C=C\\C=C(/C)C(=O)NC(=CC1=O)C2=O")
"< 6.00"
>>> data_value("Nc1ccn([C@@H]2O[C@H](CO)[C@@H](O)[C@@H]2O)c(=O)n1")
6.53
>>> data_value("CN(Cc1cnc2nc(N)nc(N)c2n1)c1ccc(C(=O)N[C@@H](CCC(=O)O)C(=O)O)cc1 [METHOTREXATE]")
"< 6.70"
>>> data_value("CCOc1nc(NC(=O)Cc2cc(OC)ccc2OC)cc(N)c1C#N")
"< 5.00"

* * *

tested on: MN-60; test: cells; type: functional, cell-based; conditions: Homo sapiens;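 further: growth inhibition of the MN-60 cell line, determined with a cell viability assay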
Description: SANGER: Inhibition of human MN-60 cell growth in a cell viability assay.
pIC50: −log10 of the molar value.
Overview of reported pIC50 across a group of compounds:
quantity_name: pIC50

>>> data_value("O=c1cc(-c2cccc3c2Sc2ccccc2S3)oc(N2CCOCC2)c1")
"< 5.00"
>>> data_value("Cc1ccc(Nc2nccc(N(C)c3ccc4c(C)n(C)nc4c3)n2)cc1S(N)(=O)=O")
"< 5.10"
>>> data_value("COc1cc([C@@H]2c3cc4c(cc3[C@@H](O[C@@H]3O[C@@H]5CO[C@@H](C)O[C@H]5[C@H](O)[C@H]3O)[C@H]3COC(=O)[C@H]23)OCO4)cc(OC)c1O [ETOPOSIDE]")
"< 4.80"
>>> data_value("COc1ccc(-c2ccc3c(N4CCOC[C@@H]4C)nc(N4CCOC[C@@H]4C)nc3n2)cc1CO")
6.17
>>> data_value("Nc1ccn([C@@H]2O[C@H](CO)[C@@H](O)[C@@H]2O)c(=O)n1")
6.03
>>> data_value("Cn1cncc1[C@@](N)(c1ccc(Cl)cc1)c1ccc2c(c1)c(-c1cccc(Cl)c1)cc(=O)n2C")
"< 4.80"
>>> data_value("CN(C)C/C=C/C(=O)Nc1cc2c(Nc3ccc(F)c(Cl)c3)ncnc2cc1O[C@H]1CCOC1")
"< 6.30"
>>> data_value("O=C(c1cc(Cc2n[nH]c(=O)c3ccccc23)ccc1F)N1CCN(C(=O)C2CC2)CC1")
"< 5.30"

* * *

Overview of reported pIC50 across a group of compounds:
tested on: G-361; assay: cells; type: functional, cell-based, Homo sapiens; conditions: Homo sapiens, G-361
pIC50: −log10 of the molar value.
quantity_name: pIC50

>>> data_value("COc1cc([C@@H]2c3cc4c(cc3[C@@H](O[C@@H]3O[C@@H]5CO[C@@H](C)O[C@H]5[C@H](O)[C@H]3O)[C@H]3COC(=O)[C@H]23)OCO4)cc(OC)c1O [ETOPOSIDE]")
6.08
>>> data_value("O=C(NOCC1CC1)c1ccc(F)c(F)c1Nc1ccc(I)cc1Cl [CI-1040]")
6.43
>>> data_value("C=CCNC1=C2C[C@@H](C)C[C@H](OC)[C@H](O)[C@@H](C)/C=C(\\C)[C@H](OC(N)=O)[C@@H](OC)/C=C\\C=C(/C)C(=O)NC(=CC1=O)C2=O [TANESPIMYCIN]")
6.64

Each recorded value in this set is attributed to ChEMBL document CHEMBL1201861.
